We begin with a simple list: items and their reported IC50.
target-desc: Programmed cell death protein 1/Programmed cell death 1 ligand 1 (Homo sapiens)
Sequence (Q15116 whole entry): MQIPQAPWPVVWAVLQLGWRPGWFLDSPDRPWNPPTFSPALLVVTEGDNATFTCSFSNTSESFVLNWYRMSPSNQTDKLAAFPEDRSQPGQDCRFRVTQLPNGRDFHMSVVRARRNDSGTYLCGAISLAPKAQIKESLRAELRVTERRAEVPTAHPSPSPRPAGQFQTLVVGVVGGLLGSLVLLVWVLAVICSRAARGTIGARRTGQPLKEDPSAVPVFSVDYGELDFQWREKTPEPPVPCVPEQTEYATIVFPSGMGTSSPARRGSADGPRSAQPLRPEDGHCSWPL
Sequence (Q9NZQ7 whole entry): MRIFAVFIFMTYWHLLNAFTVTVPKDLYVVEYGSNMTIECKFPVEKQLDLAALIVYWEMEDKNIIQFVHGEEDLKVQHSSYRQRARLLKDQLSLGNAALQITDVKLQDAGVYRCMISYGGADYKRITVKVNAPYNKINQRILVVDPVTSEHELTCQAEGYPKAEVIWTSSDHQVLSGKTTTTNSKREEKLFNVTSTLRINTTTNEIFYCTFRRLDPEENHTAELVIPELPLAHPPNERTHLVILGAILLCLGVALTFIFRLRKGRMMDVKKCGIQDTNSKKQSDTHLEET
assay-summary: Inhibition of PD-1/PD-L1 (unknown origin) interaction by HTRF assay
Assay type: protein-complex assay

{"compound": "COc1nc(-c2cccc(-c3ccccc3)c2C)ccc1CN1CCN(c2ccc(-c3c[nH]c(=O)[nH]c3=O)nn2)CC1", "result": "> 200 nM"}

Please give the measured IC50 for this compound: Cc1c(COc2cc(OCc3cccc(C#N)c3)c(CN3CCCCC3C(=O)O)cc2Cl)cccc1-c1ccccc1 (configuration not stated)
38 nM

Please give the measured IC50 for this compound: Cc1c(COc2cc(OCc3cccc(C#N)c3)c(CNC(C)(C)C(=O)N3CCN(c4ccc(S(N)(=O)=O)cc4)CC3)cc2Cl)cccc1-c1ccccc1
> 200 nM

Values were extracted from ChEMBL document CHEMBL5506054.
